targetOfAssay: hPTP1B (Homo sapiens)
Construct: The catalytic structural domain of hPTP1B was expressed in E-coli system by a molecular biology protocol; made in house; host or cells: E. coli
Sequence (P18031 3-277 limits assumed): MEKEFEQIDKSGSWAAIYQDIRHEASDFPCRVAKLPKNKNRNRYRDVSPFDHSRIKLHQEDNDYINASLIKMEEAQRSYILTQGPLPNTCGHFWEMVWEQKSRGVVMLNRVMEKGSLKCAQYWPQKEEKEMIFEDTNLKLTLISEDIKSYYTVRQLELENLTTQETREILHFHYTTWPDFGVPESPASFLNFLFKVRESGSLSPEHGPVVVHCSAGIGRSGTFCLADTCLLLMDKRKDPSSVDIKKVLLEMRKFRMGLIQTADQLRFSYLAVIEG
runDescription: PTP1B inhibition test (pNPP hydrolysis, absorption at 410 nm)
Format: biochemical
assayContext: recombinant hPTP1B catalytic domain 40 nM, 2 mM pNPP, pH 7.0, 2% DMSO; read-out: IC50(μM), inhibitory activity of the test compounds against PTP1B
IC50 reference

{"compound": "CCOC(=O)/C(C)=C\\C(C)=C\\c1csc([C@H](Cc2ccc(OCc3ccccc3)cc2)NC(=O)C(F)(F)F)n1 [WY558f]", "targetOfAssay": "hPTP1B (Homo sapiens)", "comparisonSymbol": ">", "IC50 [µM]": 35}
{"compound": "CCOC(=O)/C(C)=C\\C(C)=C\\c1csc([C@H](Cc2ccc(OCc3ccccc3)cc2)NC(=O)CC2CCCCC2)n1 [WY586s]", "targetOfAssay": "hPTP1B (Homo sapiens)", "comparisonSymbol": "=", "IC50 [µM]": 2.48}
{"compound": "CCOC(=O)/C(C)=C\\C(C)=C\\c1csc([C@H](Cc2ccc(OCc3ccc4ccccc4c3)cc2)NC(=O)C2CCCCC2)n1 [WY622h]", "targetOfAssay": "hPTP1B (Homo sapiens)", "comparisonSymbol": ">", "IC50 [µM]": 35}
{"compound": "CCOC(=O)/C(C)=C\\C(C)=C/c1csc([C@H](Cc2ccc(OCc3ccccc3)cc2)NC(=O)C2CCCCC2)n1 [WY572-4]", "targetOfAssay": "hPTP1B (Homo sapiens)", "comparisonSymbol": "=", "IC50 [µM]": 7.9}
{"compound": "C=CCc1cc(C[C@H](NC(=O)C2CCCCC2)c2nc(/C=C(C)/C=C(/C)C(=O)OCC)cs2)ccc1O [WY522b]", "targetOfAssay": "hPTP1B (Homo sapiens)", "comparisonSymbol": ">", "IC50 [µM]": 40}

* * *

targetOfAssay: hPTP1B (Homo sapiens)
Construct: The catalytic structural domain of hPTP1B was expressed in E-coli system by a molecular biology protocol; made in house; host or cells: E. coli
runDescription: PTP1B inhibition test (pNPP hydrolysis, absorption at 410 nm)
Format: biochemical
assayContext: recombinant hPTP1B catalytic domain 40 nM, 2 mM pNPP, pH 7.0, 2% DMSO; read-out: IC50(μM), inhibitory activity of the test compounds against PTP1B

{"molecule": "CCOC(=O)/C(C)=C\\C(C)=C\\c1csc([C@H](Cc2ccc(OCc3ccccc3)cc2)NC(=O)C(=O)c2ccc(F)cc2)n1", "targetOfAssay": "hPTP1B (Homo sapiens)", "IC50": "5.13 µM"}
{"molecule": "CCCCC(=O)C(=O)N[C@@H](Cc1ccc(OCc2ccccc2)cc1)c1nc(/C=C(C)/C=C(/C)C(=O)OCC)cs1", "targetOfAssay": "hPTP1B (Homo sapiens)", "IC50": "8.58 µM"}
{"molecule": "CCOC(=O)/C(C)=C\\C(C)=C\\c1csc([C@H](Cc2ccc(OCc3ccccc3)cc2)NC(=O)c2ccco2)n1 [WY556s]", "targetOfAssay": "hPTP1B (Homo sapiens)", "IC50": "> 40 µM"}
{"molecule": "CCOC(=O)/C(C)=C\\C(C)=C\\c1csc([C@H](Cc2ccc(OCCc3ccccc3)cc2)NC(=O)C2CCCCC2)n1 [WY586h]", "targetOfAssay": "hPTP1B (Homo sapiens)", "IC50": "> 35 µM"}
{"molecule": "CCOC(=O)/C(C)=C\\C(C)=C\\c1csc([C@H](Cc2ccc(O)c(Cc3ccccc3)c2)NC(=O)C2CCCCC2)n1 [WY572t]", "targetOfAssay": "hPTP1B (Homo sapiens)", "IC50": "4.47 µM"}
{"molecule": "CCOC(=O)/C(C)=C\\C(C)=C\\c1nc([C@@H](Cc2ccc(OCc3ccccc3)cc2)NC(=O)C2CCCCC2)sc1CC(C)C", "targetOfAssay": "hPTP1B (Homo sapiens)", "IC50": "10.5 µM"}
{"molecule": "CCOC(=O)/C(C)=C\\C(C)=C\\c1csc([C@H](Cc2ccc(OCc3ccncc3)cc2)NC(=O)C2CCCCC2)n1", "targetOfAssay": "hPTP1B (Homo sapiens)", "IC50": "> 40 µM"}
{"molecule": "C/C(=C/C(C)=C/c1nc([C@H](Cc2ccc(OCc3ccccc3)cc2)NC(=O)C2CCCCC2)sc1-c1ccccc1)C(=O)O [WY620a]", "targetOfAssay": "hPTP1B (Homo sapiens)", "IC50": "4 µM"}
{"molecule": "CCOC(=O)/C(C)=C\\C(C)=C\\c1csc([C@H](Cc2ccc(OCc3ccccc3)cc2)NC(=O)N2CCC(C(=O)O)CC2)n1 [WY617a]", "targetOfAssay": "hPTP1B (Homo sapiens)", "IC50": "6.47 µM"}
{"molecule": "CCOC(=O)/C(C)=C\\C(C)=C\\c1csc([C@H](Cc2ccc(OCc3ccccc3)cc2)NC(=O)C2CCCO2)n1 (stereo partly shown) [WY560s]", "targetOfAssay": "hPTP1B (Homo sapiens)", "IC50": "> 40 µM"}
{"molecule": "CCOC(=O)/C(C)=C\\C(C)=C\\c1csc([C@H](Cc2ccc(OCc3ccccc3)cc2)NC(=O)C(=O)CO)n1", "targetOfAssay": "hPTP1B (Homo sapiens)", "IC50": "> 35 µM"}
{"molecule": "CCOC(=O)/C(C)=C\\C(C)=C\\c1csc([C@H](Cc2ccc(OCc3ccccc3)cc2)NC(=O)C(=O)C2CCCO2)n1 (stereo partly shown)", "targetOfAssay": "hPTP1B (Homo sapiens)", "IC50": "10.4 µM"}
{"molecule": "CCOC(=O)/C(C)=C\\C(C)=C\\c1csc([C@H](Cc2ccc(Oc3ccc([N+](=O)[O-])cc3F)cc2)NC(=O)C2CCCCC2)n1 [WY621h]", "targetOfAssay": "hPTP1B (Homo sapiens)", "IC50": "> 35 µM"}
{"molecule": "CC(=C\\c1csc([C@H](Cc2ccc(OCc3ccccc3)cc2)NC(=O)C2CCCCC2)n1)/C=C(\\C)C(=O)O", "targetOfAssay": "hPTP1B (Homo sapiens)", "IC50": "11.3 µM"}
{"molecule": "CCOC(=O)/C(C)=C\\C(C)=C\\c1csc([C@H](Cc2ccc(OCc3ccccc3)cc2)NC(=O)C2CC2)n1 [WY530s]", "targetOfAssay": "hPTP1B (Homo sapiens)", "IC50": "> 35 µM"}
{"molecule": "CCOC(=O)/C(C)=C\\C(C)=C\\c1csc([C@H](Cc2ccc(OCc3ccccc3)cc2)NC(=O)C2CCC2)n1 [WY544s]", "targetOfAssay": "hPTP1B (Homo sapiens)", "IC50": "> 40 µM"}
{"molecule": "C=CCOc1ccc(C[C@H](NC(=O)C2CCCCC2)c2nc(/C=C(C)/C=C(/C)C(=O)OCC)cs2)cc1 [WY522h]", "targetOfAssay": "hPTP1B (Homo sapiens)", "IC50": "34.4 µM"}
{"molecule": "COC(=O)/C(C)=C\\C(C)=C\\c1csc([C@H](Cc2ccc(OCc3ccccc3)cc2)NC(=O)C(O)c2ccccc2)n1 (stereo partly shown)", "targetOfAssay": "hPTP1B (Homo sapiens)", "IC50": "> 35 µM"}
{"molecule": "C/C(=C/C(C)=C/c1nc([C@H](Cc2ccc(OCc3ccccc3)cc2)NC(=O)CC2CCCCC2)sc1-c1ccccc1)C(=O)O [WY634a]", "targetOfAssay": "hPTP1B (Homo sapiens)", "IC50": "3.97 µM"}
{"molecule": "CCOC(=O)/C(C)=C\\C(C)=C\\c1csc([C@H](Cc2ccc(OCc3ccccc3)cc2)NC(=O)C(=O)C2CCCCC2)n1", "targetOfAssay": "hPTP1B (Homo sapiens)", "IC50": "3.44 µM"}
{"molecule": "CCOC(=O)/C(C)=C\\C(C)=C\\c1csc([C@H](Cc2ccc(OCc3ccccc3)cc2)NC(=O)C(=O)C2CC2)n1", "targetOfAssay": "hPTP1B (Homo sapiens)", "IC50": "8.14 µM"}
{"molecule": "CCOC(=O)/C(C)=C\\C(C)=C\\c1csc([C@H](Cc2ccc(OCc3ccccc3)cc2)NC(=O)c2cc3ccccc3s2)n1 [WY622s]", "targetOfAssay": "hPTP1B (Homo sapiens)", "IC50": "25.6 µM"}
{"molecule": "CCOC(=O)/C(C)=C\\C(C)=C\\c1csc([C@H](Cc2ccc(OCc3ccccc3)cc2)NC(=O)C(=O)c2cccs2)n1 [WY600t]", "targetOfAssay": "hPTP1B (Homo sapiens)", "IC50": "10.9 µM"}
{"molecule": "C/C(=C/C(C)=C/c1csc([C@H](Cc2ccc(OCc3ccccc3)cc2)NC(=O)CC2CCCCC2)n1)C(=O)O [WY558a]", "targetOfAssay": "hPTP1B (Homo sapiens)", "IC50": "9.32 µM"}
{"molecule": "CCOC(=O)/C(C)=C\\C(C)=C\\c1csc([C@H](Cc2ccc(OCC(=O)O)cc2)NC(=O)C2CCCCC2)n1 [WY540a]", "targetOfAssay": "hPTP1B (Homo sapiens)", "IC50": "> 40 µM"}
{"molecule": "CCOC(=O)/C(C)=C\\C(C)=C\\c1csc([C@H](Cc2ccc(OCc3ccccc3)cc2)NC(=O)c2ccc(F)cc2)n1 [WY584s]", "targetOfAssay": "hPTP1B (Homo sapiens)", "IC50": "> 35 µM"}
{"molecule": "CCOC(=O)/C(C)=C\\C(C)=C\\c1csc([C@H](Cc2ccc(OCc3ccccc3)cc2)NC(=O)C2CCCC2)n1 [WY558s]", "targetOfAssay": "hPTP1B (Homo sapiens)", "IC50": "12.7 µM"}
{"molecule": "CCOC(=O)/C(C)=C\\C(C)=C\\c1csc([C@H](Cc2ccc(OCc3ccccc3)cc2)NC(=O)C2CCCCC2=O)n1 (stereo partly shown) [WY586d]", "targetOfAssay": "hPTP1B (Homo sapiens)", "IC50": "8.44 µM"}
